Reference for the values: patent US12502393B2

ASSAY SUMMARY: Human plasma protein binding
Format: in vitro ADME
APPLIED CONDITIONS: human, read-out: % Bound in human plasma (converted)
Description: An aliquot of 200 μL of human plasma containing test compound was spiked into donor well (red chamber) of the insert. 350 μL of PBS was spiked into receiver well (white chamber) of the insert. The samples were matrix equilibrated with opposite matrix (25 μL of plasma/buffer sample was matched with 25 μL of blank buffer/plasma). […] Supernatant was separated, diluted 2 fold with water and analysed in LC-MS/MS. […]
READOUT TYPE: fraction unbound

Could you share which fraction unbound value was measured for CCCc1nc(C)c2c(=O)[nH]c(-c3cc(S(=O)(=O)N4CCC([C@H](O)CO[N+](=O)[O-])CC4)ccc3OCC)nn12 ?
0.0173

(P) CCCc1nn(C)c2c(=O)[nH]c(-c3cc(S(=O)(=O)N4CCC(C(O)C(CO)CO)CC4)ccc3OCC)nc12 (stereo not drawn)
(Q) CCCc1nc(C)c2c(=O)[nH]c(-c3cc(S(=O)(=O)N4CCC(C(O)(CCO)CCO)CC4)ccc3OCC)nn12
Could you point out whether the larger fraction unbound belongs to P or to Q ? // caller expects the label of the chosen entry
Q
(Q: 0.069, P: 0.036)
